- assaySystem: T1, GST-KIAA1634 PDZ domain 2 (Homo sapiens (Human)), Q5TCQ9
- T1 chain: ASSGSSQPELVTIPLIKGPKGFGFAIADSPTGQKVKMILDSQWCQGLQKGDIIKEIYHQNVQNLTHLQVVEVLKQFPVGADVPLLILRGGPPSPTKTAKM
- assayText: G assay titration, PDZ 1 ug/ml
readoutType: pKd
Keep in mind that pKd stands for -log10 of concentration in molar terms.

Given the entry EDPKDRPSAAHIVEALETDV (modifications not checked) [PDZ-binding kinase (PBK)] , report its measured pKd.
5.15
